Target: UniProtKB Q66S75
Sequence (Q66S75 23-664): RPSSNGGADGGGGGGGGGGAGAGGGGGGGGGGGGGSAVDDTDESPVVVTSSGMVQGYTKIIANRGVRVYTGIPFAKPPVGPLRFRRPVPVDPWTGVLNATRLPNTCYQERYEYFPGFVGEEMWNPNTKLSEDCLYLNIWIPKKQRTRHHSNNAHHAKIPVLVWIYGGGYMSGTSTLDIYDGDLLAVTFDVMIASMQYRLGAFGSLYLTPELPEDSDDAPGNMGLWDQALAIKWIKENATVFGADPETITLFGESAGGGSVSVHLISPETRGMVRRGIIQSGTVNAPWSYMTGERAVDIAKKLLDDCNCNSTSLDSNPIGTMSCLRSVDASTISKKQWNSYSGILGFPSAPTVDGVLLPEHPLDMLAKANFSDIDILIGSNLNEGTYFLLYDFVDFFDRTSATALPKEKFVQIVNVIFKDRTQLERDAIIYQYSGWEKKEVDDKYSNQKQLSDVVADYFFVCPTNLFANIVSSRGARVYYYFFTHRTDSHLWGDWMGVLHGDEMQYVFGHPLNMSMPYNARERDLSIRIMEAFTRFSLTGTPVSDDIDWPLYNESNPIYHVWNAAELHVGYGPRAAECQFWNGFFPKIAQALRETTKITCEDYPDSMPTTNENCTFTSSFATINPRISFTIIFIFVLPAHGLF
readout: IC50 (µM)
API: value field is a number in µM; no unit string.

Query: Field request: IC50 | item: C=CC[N+](C)(C)c1ccc(CCC(=O)CCc2ccc([N+](C)(C)CC=C)cc2)cc1.[Br-].[Br-] [BW284C51]
Result: 24.7

Where do these numbers come from? They come from paper PMC3735166.
